# System: MOLT-4
# test.name: Cytotoxicity against human MOLT4 cells after 48 hrs by SRB assay
# Assay type: functional
# test.parameters: MOLT-4, 48 h, read-out: TGI
The following molecules are shown together with reported TGI values.

# structure.as.smiles, system.under.test, TGI
records = [
    ("C#C[C@@]1(O)[C@@H](CO)O[C@@H](n2cc(Cl)c3c(N)ncnc32)[C@@H]1O", "MOLT-4", "6.97 to 100 µM"),
    ("C#C[C@@]1(O)[C@@H](CO)O[C@@H](n2cc(I)c3c(N)ncnc32)[C@@H]1O", "MOLT-4", "0.831 µM"),
    ("C#C[C@@]1(O)[C@@H](CO)O[C@@H](n2cc(Br)c3c(N)ncnc32)[C@@H]1O", "MOLT-4", "0.778 to 100 µM"),
    ("C#C[C@@]1(O)[C@@H](CO)O[C@@H](n2cc(F)c3c(N)ncnc32)[C@@H]1O", "MOLT-4", "> 100 µM"),
    ("C#C[C@@]1(O)[C@@H](CO)O[C@@H](n2ccc3c(N)ncnc32)[C@@H]1O", "MOLT-4", "> 100 µM"),
]

Numbers sourced from ChEMBL document CHEMBL4270599.
